cytotoxicity at 41 h, 10 µM values, listed per item
Assay: in vitro
Conditions: human
Where a name gives a salt, the structure may show the parent alone.
Just the number in %, nothing appended.

Example results:
# compound, measure, reported.value
rows = [
    ("Cc1cc(O)cc(O)c1C(=O)O [ORSELLINIC ACID]", "cytotoxicity at 41 h, 10 µM", -19.3),
    ("CC[C@H](CC[C@@H](C)[C@H]1CC[C@H]2[C@@H]3CC=C4C[C@@H](OC(C)=O)CC[C@]4(C)[C@H]3CC[C@]12C)C(C)C [SITOSTERYL ACETATE]", "cytotoxicity at 41 h, 10 µM", -12.4),
    ("C=CC(C)(O)CCC=C(C)CCC=C(C)C (mixture of isomers) [NEROLIDOL]", "cytotoxicity at 41 h, 10 µM", -12.9),
]

// returns reported cytotoxicity at 41 h, 10 µM for input COC1=CC(=O)C(O)=C/C1=C\C=C\c1ccccc1 [OBTUSAQUINONE] 44.3

Continue with CC(C)=CC1C(CO)C1(C)C (stereo not shown) [CHRYSANTHEMYL ALCOHOL] -9.5

Continue with COc1ccc2c(c1OC)C(=O)O[C@@H]2[C@H]1c2c(cc3c(c2OC)OCO3)CCN1C [NOSCAPINE HYDROCHLORIDE] 18.9

Continue with C[C@@H]1CC[C@H]2C(C)(C)[C@H]3C[C@@]12CC[C@@]3(C)O [CEDROL] -7.7
